Several publications report log10 of IC50 on IRAK1 (Homo sapiens, UniProt P51617); those values are gathered here.
Sequence (P51617 whole entry): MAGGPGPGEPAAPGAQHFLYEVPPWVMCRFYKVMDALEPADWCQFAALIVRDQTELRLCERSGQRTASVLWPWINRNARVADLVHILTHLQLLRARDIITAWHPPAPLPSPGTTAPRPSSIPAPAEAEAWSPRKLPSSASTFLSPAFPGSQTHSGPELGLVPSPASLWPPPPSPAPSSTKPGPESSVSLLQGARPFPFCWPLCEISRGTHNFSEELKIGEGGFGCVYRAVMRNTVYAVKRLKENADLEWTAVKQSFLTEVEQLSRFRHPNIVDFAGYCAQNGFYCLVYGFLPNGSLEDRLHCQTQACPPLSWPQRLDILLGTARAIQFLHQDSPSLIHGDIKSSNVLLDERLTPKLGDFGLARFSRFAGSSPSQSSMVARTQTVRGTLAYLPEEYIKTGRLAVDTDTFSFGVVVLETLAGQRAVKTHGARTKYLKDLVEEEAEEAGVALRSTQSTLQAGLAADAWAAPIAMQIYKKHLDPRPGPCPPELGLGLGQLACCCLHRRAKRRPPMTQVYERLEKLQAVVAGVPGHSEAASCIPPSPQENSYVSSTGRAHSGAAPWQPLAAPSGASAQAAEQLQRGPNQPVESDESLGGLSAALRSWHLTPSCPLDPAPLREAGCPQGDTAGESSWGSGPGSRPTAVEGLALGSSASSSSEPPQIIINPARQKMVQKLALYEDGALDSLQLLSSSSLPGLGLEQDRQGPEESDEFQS
measured attribute: log10 of IC50 (log10 of the value in nM)

| molecule | measured value |
| --- | --- |
| O=C1CCC(N2Cc3c(NCCOCCOCCC(=O)N4CCC(c5cc(NC(=O)c6cccc(-c7ccn[nH]7)n6)n(-c6ccccn6)n5)CC4)cccc3C2=O)C(=O)N1 (stereo not drawn) | 1.60 |
| COc1cc2ncc(-c3cccc(N[C@H]4CNCC45CC5)n3)n2nc1C1CC1 | 3.14 |
| COc1cc2nn([C@H]3CC[C@](C)(O)CC3)cc2cc1NC(=O)c1cccc(C)[n+]1[O-] | 3.61 |
| COc1cc2nn(CCC(C)(C)O)cc2cc1NC(=O)c1cccc(C)[n+]1[O-] | 3.48 |
| COc1cc2ncc(-c3cccc(N[C@H]4CNC[C@@H]4C(F)(F)F)n3)n2nc1C1CC1 | 2.91 |
| C=CC(=O)N1CCC[C@H](C(=O)Nc2ccc(NC(=O)c3csc(-c4ccn[nH]4)n3)nc2)C1 | 2.51 |
| C=CC(=O)N1CCC[C@H](c2nc(-c3ccc(NC(=O)c4cccc(-c5ccn[nH]5)n4)c(F)c3)no2)C1 | 1.21 |
| F[C@H]1CNCC[C@@H]1Nc1cccc(-c2cnc3ccc(-c4cnn5ccccc45)nn23)n1 | 0.48 |
